# Test system: SAS cells
# experimental-protocol: SAS CTG proliferation assay (120 h) (HNSCC, wt amplified)
# Assay type: cell-based
measurement-kind: IC50
Record the result as a number with its unit.

What measured IC50 goes with C[C@H](Oc1cc(N2CC[C@H](N3CCCC3)C2)nc(-c2noc3c2CCC[C@@]32CCCc3sc(N)c(C#N)c32)n1)[C@@H]1CCCN1C ? 1670 nM

What do we get for C[C@H](Oc1cc(-n2ccc(-c3cnccn3)n2)nc(-c2noc3c2CCC[C@@]32CCCc3sc(N)c(C#N)c32)n1)[C@@H]1CCCN1C ? 176 nM

What do we get for C[C@H](Oc1cc(-n2cnc3cccnc32)nc(-c2noc3c2CCC[C@@]32CCCc3sc(N)c(C#N)c32)n1)[C@@H]1CCCN1C ? 173 nM

What do we get for C[C@H](Oc1cc(-c2ccn(C[C@@H]3CCCO3)n2)nc(-c2noc3c2CCC[C@@]32CCCc3sc(N)c(C#N)c32)n1)[C@@H]1CCCN1C ? 24 nM

What do we get for C[C@H](Oc1cc(-n2ccc(-c3cn(CC4(C)COC4)nn3)n2)nc(-c2noc3c2CCC[C@@]32CCCc3sc(N)c(C#N)c32)n1)[C@@H]1CCCN1C ? 13 nM

What do we get for C[C@H](Oc1cc(N2CCNC3(CC3)C2)nc(-c2noc3c2CCC[C@@]32CCCc3sc(N)c(C#N)c32)n1)[C@@H]1C[C@@H](F)CN1C ? 437 nM

---

# System: LOVO cells
# experimental-protocol: LOVO CTG proliferation assay (120 h) (CRC, G13D)
# Format: cell-based
# conditions: Homo sapiens, CTG 120 h
pIC50: −log10 of the molar value.
Please mark Yes if the recorded pIC50 is equal to or greater than 7, and No if it falls below.

# bool: pIC50 of C[C@H]1CNCCCN1c1cc(-n2ccnc2)nc(-c2noc3c2CCC[C@@]32CCCc3sc(N)c(C#N)c32)n1 >= 7 No

What do we get for C[C@H](Oc1cc(N2CCN(CCO)CC2)nc(-c2noc3c2CCC[C@@]32CCCc3sc(N)c(C#N)c32)n1)[C@@H]1CCCN1C ? No

What do we get for CC(=O)N1CCN(c2cc(O[C@@H](C)[C@@H]3CCCN3C)nc(-c3noc4c3CCC[C@@]43CCCc4sc(N)c(C#N)c43)n2)CC12CC2 ? No

What do we get for C[C@H](Oc1cc(N2CCCC3(COC3)C2)nc(-c2noc3c2CCC[C@@]32CCCc3sc(N)c(C#N)c32)n1)[C@@H]1CCCN1C ? Yes

What do we get for C[C@H](O)Cn1ccc(-c2cc(O[C@@H](C)[C@@H]3CCCN3C)nc(-c3noc4c3CCC[C@@]43CCCc4sc(N)c(C#N)c43)n2)n1 ? Yes

---

# Test system: LOVO cells
# experimental-protocol: LOVO CTG proliferation assay (120 h) (CRC, G13D)
# Format: cell-based
# conditions: Homo sapiens, CTG 120 h
pIC50: −log10 of the molar value.
Please mark yes if the recorded pIC50 is equal to or greater than 6, and no if it falls below.

# bool: pIC50 of C[C@H](Oc1cc(N2CCN(C)C3(CC3)C2)nc(-c2onc3c2CCC[C@@]32CCCc3sc(N)c(C#N)c32)n1)[C@@H]1C[C@@H](F)CN1C >= 6 yes

What do we get for C[C@H](Oc1cc(-c2ccn(-c3ccsc3)n2)nc(-c2noc3c2CCC[C@@]32CCCc3sc(N)c(C#N)c32)n1)[C@@H]1CCCN1C ? yes

What do we get for [2H]C([2H])([2H])N1C[C@H](F)C[C@H]1[C@H](C)Oc1cc(N2CCN(C([2H])([2H])[2H])C3(CC3)C2)nc(-c2noc3c2CCC[C@@]32CCCc3sc(N)c(C#N)c32)n1 ? yes

What do we get for C[C@H](Oc1cc(-n2cncc3ccnc2-3)nc(-c2noc3c2CCC[C@@]32CCCc3sc(N)c(C#N)c32)n1)[C@@H]1CCCN1C ? yes

What do we get for C[C@@H]1CN(c2cc(O[C@@H](C)[C@@H]3CCCN3C)nc(-c3noc4c3CCC[C@@]43CCCc4sc(N)c(C#N)c43)n2)C[C@H](C)N1 ? no

---

# System: AsPC-1 cells
# experimental-protocol: AsPC-1 CTG proliferation assay (120 h) (pancreatic cancer, G12D)
# Format: cell-based
# conditions: Homo sapiens, ASPC1
pIC50: −log10 of the molar value.
Please mark yes if the recorded pIC50 is equal to or greater than 6, and no if it falls below.

# bool: pIC50 of C[C@H]1CN(C)CCCN1c1cc(N2CC[C@H](N(C)C)C2)nc(-c2noc3c2CCC[C@@]32CCCc3sc(N)c(C#N)c32)n1 [II-16] >= 6 no

What do we get for C[C@H](Oc1cc([C@@H]2CCOC2)nc(-c2onc3c2CCC[C@@]32CCCc3sc(N)c(C#N)c32)n1)[C@@H]1CCCN1C [I-22] ? yes

What do we get for C[C@H](Oc1cc(N2Cc3cnn(C)c3C2)nc(-c2onc3c2CCC[C@@]32CCCc3sc(N)c(C#N)c32)n1)[C@@H]1CCCN1C [I-19] ? no

What do we get for C[C@H](Oc1cc(-n2cc(C3CC3)nn2)nc(-c2noc3c2CCC[C@@]32CCCc3sc(N)c(C#N)c32)n1)[C@@H]1CCCN1C [II-118] ? no

What do we get for COc1c(O[C@@H](C)[C@@H]2CCCN2C)nc(-c2noc3c2CCC[C@@]32CCCc3sc(N)c(C#N)c32)nc1-n1ccc(C(N)=O)n1 [II-159] ? no

---

# tested-target: UniProt P08684
# Sequence (P08684 whole entry): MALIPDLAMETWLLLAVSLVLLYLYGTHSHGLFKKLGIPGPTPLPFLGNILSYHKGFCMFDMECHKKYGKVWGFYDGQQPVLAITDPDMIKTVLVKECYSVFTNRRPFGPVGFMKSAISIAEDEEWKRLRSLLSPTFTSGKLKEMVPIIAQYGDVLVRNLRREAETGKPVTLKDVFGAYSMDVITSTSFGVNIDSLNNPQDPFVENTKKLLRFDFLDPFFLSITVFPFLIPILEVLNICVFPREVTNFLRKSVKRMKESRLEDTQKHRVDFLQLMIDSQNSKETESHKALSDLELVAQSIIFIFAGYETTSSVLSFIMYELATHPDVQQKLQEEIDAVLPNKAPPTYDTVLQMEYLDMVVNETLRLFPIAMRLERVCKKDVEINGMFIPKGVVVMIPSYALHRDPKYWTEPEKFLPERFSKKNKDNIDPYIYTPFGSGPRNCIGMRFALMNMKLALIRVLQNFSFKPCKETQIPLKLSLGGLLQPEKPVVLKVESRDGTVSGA
# experimental-protocol: Mechanism based inhibition of CYP3A4 assay (MBI 3A4)
# Format: in vitro ADME
# conditions: hydroxy-midazolam formation after 30 min vs 0 min preincubation, 25 uM, human liver microsomes
measurement-kind: MBI 3A4 (%)
All answers are understood in %, so give the number only.

Param readout = MBI 3A4; param system = UniProt P08684; param query = Cc1ccc(-c2cc(O[C@@H](C)[C@@H]3CCCN3C)nc(-c3onc4c3CCC[C@@]43CCCc4sc(N)c(C#N)c43)n2)cn1 ; response: value 77

What do we get for C[C@H](Oc1cc(N2CCNCC23CCOC3)nc(-c2onc3c2CCC[C@@]32CCCc3sc(N)c(C#N)c32)n1)[C@@H]1CCCN1C (stereo partly shown) ? 72

What do we get for Cc1cn(C)nc1-c1cc(O[C@@H](C)[C@@H]2CCCN2C)nc(-c2noc3c2CCC[C@@]32CCCc3sc(N)c(C#N)c32)n1 ? 74

What do we get for C[C@H](Oc1cc(N2CCN(C)C2=O)nc(-c2noc3c2CCC[C@@]32CCCc3sc(N)c(C#N)c32)n1)[C@@H]1CCCN1C ? 57

What do we get for C[C@H](Oc1cc(N2CC[C@@H](O)C2)nc(-c2noc3c2CCC[C@@]32CCCc3sc(N)c(C#N)c32)n1)[C@@H]1CCCN1C ? 71

What do we get for CO[C@@H]1C[C@@H]([C@H](C)Oc2cc(-c3ccn(C)n3)nc(-c3onc4c3CCC[C@@]43CCCc4sc(N)c(C#N)c43)n2)N(C)C1 ? 57

What do we get for C[C@H](Oc1cc(-n2ccc(C(=O)N[C@H]3CCOC3)n2)nc(-c2noc3c2CCC[C@@]32CCCc3sc(N)c(C#N)c32)n1)[C@@H]1CCCN1C ? 61

What do we get for C[C@H](Oc1cc(N2CCNC[C@]23CCOC3)nc(-c2onc3c2CCC[C@@]32CCCc3sc(N)c(C#N)c32)n1)[C@@H]1CCCN1C ? 56

What do we get for C[C@H](Oc1cc(-n2ccnc2)nc(-c2noc3c2CCC[C@@]32CCCc3sc(N)c(C#N)c32)n1)[C@@H]1CCCN1C ? 94

What do we get for Cc1cn(-c2cc(O[C@@H](C)[C@@H]3CCCN3C)nc(-c3noc4c3CCC[C@@]43CCCc4sc(N)c(C#N)c43)n2)nn1 ? 61

What do we get for C[C@H](Oc1cc(N2C[C@H](C)NC3(CC3)C2)nc(-c2onc3c2CCC[C@@]32CCCc3sc(N)c(C#N)c32)n1)[C@@H]1CCCN1C ? 25

What do we get for C[C@H](Oc1cc(-c2ccn(C3COC3)n2)nc(-c2noc3c2CCC[C@@]32CCCc3sc(N)c(C#N)c32)n1)[C@@H]1CCCN1C ? 63

What do we get for C[C@H](Oc1cc(-n2ccc(-c3ccccn3)n2)nc(-c2noc3c2CCC[C@@]32CCCc3sc(N)c(C#N)c32)n1)[C@@H]1CCCN1C ? 52

What do we get for C[C@H](Oc1cc(N2CCNC3(COC3)C2)nc(-c2onc3c2CCC[C@@]32CCCc3sc(N)c(C#N)c32)n1)[C@@H]1CCCN1C ? 64

What do we get for C[C@H](Oc1cc(N2CCN(C)C3(COC3)C2)nc(-c2onc3c2CCC[C@@]32CCCc3sc(N)c(C#N)c32)n1)[C@@H]1C[C@@H](F)CN1C ? 45

What do we get for CNC(=O)c1cn(-c2cc(O[C@@H](C)[C@@H]3CCCN3C)nc(-c3noc4c3CCC[C@@]43CCCc4sc(N)c(C#N)c43)n2)nn1 ? 68

What do we get for C[C@H](Oc1nc(-c2onc3c2CCC[C@@]32CCCc3sc(N)c(C#N)c32)cc(N2CCN(C)C3(CC3)C2)n1)[C@@H]1CCCN1C ? 37

What do we get for C[C@H](Oc1cc(-c2ccn(C3CC3)n2)nc(-c2noc3c2CCC[C@@]32CCCc3sc(N)c(C#N)c32)n1)[C@@H]1CCCN1C ? 74

What do we get for C[C@H](Oc1cc(-n2cc(C(=O)N(C)C)nn2)nc(-c2noc3c2CCC[C@@]32CCCc3sc(N)c(C#N)c32)n1)[C@@H]1CCCN1C ? 70

What do we get for C[C@H](Oc1cc(-c2ccn(-c3ccccc3)n2)nc(-c2noc3c2CCC[C@@]32CCCc3sc(N)c(C#N)c32)n1)[C@@H]1CCCN1C ? 73

What do we get for C[C@H](Oc1cc(-c2ccncc2)nc(-c2noc3c2CCC[C@@]32CCCc3sc(N)c(C#N)c32)n1)[C@@H]1CCCN1C ? 48

What do we get for C[C@H](Oc1cc(N2CC[C@H](N(C)C)C2)nc(-c2noc3c2CCC[C@@]32CCCc3sc(N)c(C#N)c32)n1)[C@@H]1C[C@@H](F)CN1C ? 76

What do we get for C[C@H](Oc1cc([C@@H]2CCN(C)C2)nc(-c2noc3c2CCC[C@@]32CCCc3sc(N)c(C#N)c32)n1)[C@@H]1CCCN1C ? 81

What do we get for C[C@H](Oc1cc(-c2ccn(C)n2)nc(-c2noc3c2CCC[C@@]32CCCc3sc(N)c(C#N)c32)n1)[C@@H]1C[C@@H](F)CN1C ? 71

What do we get for C[C@H](Oc1cc(N2CC[C@H](N(C)C)C2)nc(-c2noc3c2CCC[C@@]32CCCc3sc(N)c(C#N)c32)n1)[C@@H]1CCCN1C ? 75
